Test system: M19-MEL
Test Name: In vitro cytotoxicity against human tumor M19 cell line (melanoma cancer)
Assay type: functional, cell-based

{"Query Sequence": "CISPLATIN", "Unit": "nM", "IC50": 1900}
